B1: TM2 domain of in the TOXCAT construct (between MBP and ToxR) [guinea pig] / itself (parent)
chain: WVFVNAGGWMGAMCLLHASL

- Variants of: B1
- measurement_description: TOXCAT
- measurement_context: with itself;; read off a plot
reported_property: response (%GpA)
Kindly answer with a numeric value in %GpA, unit omitted.

Example entries begin here.
WVFVNAGGWMGAMCLLAASL [chain 1 H17A] :: 20
WVFVNAGLWMGAMCLLHASL [chain 1 G8L] :: 89
WVFVNALGWMGAMCLLHASL [chain 1 G7L] :: 77

query: // returns reported response for input WVFVNAGIWMGAMCLLHASL [chain 1 G8I]
result: 100

query: // response lookup, key: WVFVNAIGWMGAMCLLHASL [chain 1 G7I]
result: 94

query: Consider the variant WVFVNALLWMGAMCLLHASL [chain 1 G7L G8L] and give its measured response.
result: -2.7
